# Species on record: Homo sapiens
# TEST PROTOCOL: Inhibition of mRNA splicing of human SMN2 exon 7 transfected in HEK293H cells assessed as compound concentration required to increase full-length SMN2 mRNA level by 1.5 times after 24 hrs by RT-qPCR analysis relative to GAPDH
# Assay type: cell-based
# note: exactly 20 nM is not below, so it is not met; use met for EC1.5 strictly under it

Example cases with answers are listed next.
In: Identify whether the molecule COc1ccc(-c2nc3ccc(N4CCNCC4)cc3[nH]c2=O)cc1OC records EC1.5 below 20 nM.
Out: not met

In: Confirm or reject: EC1.5 of COc1ccc(-c2cc3ccc(N4CCNCC4)cc3oc2=O)cc1 lies strictly below 20 nM
Out: not met

In: Lab log: compare recorded EC1.5 with 20 nM; is it strictly lower for COc1ccc(-c2cc3ccc(N4CCNCC4)cn3c(=O)n2)cc1OC ?
Out: not met

***
In: Quick check: EC1.5 of CCN1CCN(c2ccc3cc(-c4cn5cc(C)nc(C)c5n4)c(=O)oc3c2)CC1 under 20 nM?
Out: met

In: Is it true that EC1.5 reported for COc1ccc(-c2cc(=O)n3cc(N4CCNCC4)ccc3n2)cc1OC is less than 20 nM?
Out: not met

In: Threshold test, EC1.5 < 20 nM: Cc1ccc2nc(-c3cc4ccc(N5CCNCC5)cc4oc3=O)cn2c1
Out: not met

In: Quick check: does Cc1cn2nc(-c3cc(=O)n4cc(N5CCNCC5)ccc4n3)cc2c(C)n1 have EC1.5 under 20 nM?
Out: met

In: Report whether reported EC1.5 is lower than 20 nM (strictly) for Cc1cn2cc(-c3cc4ccc(N5CCNCC5)cc4c(=O)o3)nc2c(C)n1
Out: met

In: For Cc1cc2oc(-c3cc4ccc(N5CCNCC5)cc4oc3=O)cc2c(C)n1 , is the recorded EC1.5 below the cut-off of 20 nM?
Out: not met

In: Strictly below 20 nM in EC1.5? CCc1ccc2nc(-c3cc4ccc(N5CCNCC5)cc4oc3=O)cn2c1
Out: not met

In: Item Cc1cn2cc(-c3cc4ccc(N5CCN[C@@H](C)C5)cc4oc3=O)nc2c(C)n1 : EC1.5 beneath 20 nM, strictly?
Out: met

###

Quick reference: EC1.5 of the listed items.
# Organism: Homo sapiens
# TEST PROTOCOL: Inhibition of mRNA splicing of SMN2 exon 7 in GM03813 fibroblasts derived from SMA patient assessed as compound concentration required to increase SMN protein level by 1.5 times after 24 hrs by HTRF assay

Known EC1.5 results, listed for orientation:
In: Need EC1.5, item Cc1cn2cc(-c3cc4ccc(N5CCN(C)CC5)cc4oc3=O)nc2cn1
Out: 69 nM

In: Data request, read-out EC1.5, for Cc1cn2cc(-c3cc4ccc(N5CCC(N(C)C)CC5)cc4oc3=O)nc2c(C)n1
Out: 61 nM

In: Any idea what EC1.5 was measured for Cc1cn2cc(-c3cc4ccc(N5CCN(C)CC5)cc4c(=O)o3)nc2cn1 ?
Out: 120 nM

In: For Cc1cc2cc(-c3cc4ccc(N5CCNCC5)cc4oc3=O)oc2c(C)n1 , what is its reported EC1.5?
Out: 16 nM

In: Suppose we examine the compound Cc1cn2cc(-c3cc4ccc(N5CCNCC5)cc4oc3=O)ccc2n1 ; what EC1.5 value has been reported?
Out: 66 nM

In: Quick check: EC1.5 of Cc1cn2cc(-c3cc4ccc(N5CCN[C@@H](C)C5)cc4oc3=O)nc2c(C)n1 ?
Out: 5 nM

Further cases:
In: So what's the measured EC1.5 for this one? O=c1oc2cc(N3CCNCC3)ccc2cc1-c1nc2ccccc2[nH]1
Out: > 10000 nM

In: Consider the compound COc1ccc(-c2cc3ccc(N4CCNCC4)cn3c(=O)n2)cc1OC and give its measured EC1.5.
Out: > 10000 nM

In: Fill in the blank: the reported EC1.5 of Cc1cn2cc(-c3cc4ccc(N5C[C@H]6CNC[C@H]6C5)cc4oc3=O)nc2c(C)n1 is ____.
Out: 13 nM

###

Let's look at some molecules and their measured EC1.5.
# Organism: Homo sapiens
# TEST PROTOCOL: Inhibition of mRNA splicing of human SMN2 exon 7 transfected in HEK293H cells assessed as compound concentration required to increase full-length SMN2 mRNA level by 1.5 times after 24 hrs by RT-qPCR analysis relative to GAPDH
# Format: cell-based
Note: unit nM is implicit; provide only the numeric part.

In: Please give the measured EC1.5 for this molecule: Cc1cn2nc(-c3cc(=O)n4cc(N5CCN6CCC[C@H]6C5)ccc4n3)cc2c(C)n1
Out: 120

More entries:
In: If you can, please state the reported EC1.5 value of O=c1oc2cc(N3CCNCC3)ccc2cc1-c1cn2ccsc2n1 .
Out: 110

In: Which EC1.5 is listed for Cc1cn2cc(-c3cc4ccc(N5CCNCC5)cc4oc3=O)nc2c(C)n1 ?
Out: 2

In: Look up EC1.5: Cc1cn2cc(-c3cc4ccc(N5CCNCC5)cc4oc3=O)cc2c(C)n1
Out: 4

###

# Organism: Homo sapiens
# TEST PROTOCOL: Inhibition of mRNA splicing of human SMN2 exon 7 transfected in HEK293H cells assessed as compound concentration required to increase full-length SMN2 mRNA level by 1.5 times after 24 hrs by RT-qPCR analysis relative to GAPDH
# Format: cell-based
Hi! Could you tag entries with EC1.5 below 20 nM as true, and those at or above as false? Much appreciated.

Example cases with answers are listed next.
In: Strictly below 20 nM in EC1.5? COc1ccc(-c2cn3ccc(N4CCNCC4)cc3nc2=O)cc1OC
Out: false

In: Lab note: EC1.5 threshold 20 nM. Does this molecule come in strictly under it? Cc1cc2cc(-c3cc4ccc(N5CCNCC5)cc4oc3=O)oc2c(C)n1
Out: true

In: In the record for Cc1cn2cc(-c3cc4ccc(N5CCNCC5)cc4oc3=O)nc2cn1 , is EC1.5 less than 20 nM?
Out: true

In: # strict comparison: is reported EC1.5 < 20 nM? input = COc1ccc(-c2cc3ccc(N4CCNCC4)cc3c(=O)o2)cc1OC
Out: false

As a next step, examine the molecule that follows.
In: Quick check: does Cc1cn2cc(-c3cc4ccc(N5C[C@H]6CNC[C@H]6C5)cc4oc3=O)nc2c(C)n1 have EC1.5 under 20 nM?
Out: true

###

# TEST PROTOCOL: AUC (0 to 6 hrs) in Sprague-Dawley rat at 10 mg/kg, po
# Format: ADME, organism-based
# Set-up: dose 10 mg/kg, time < 6 hr, route oral
# RECORDED CONDITIONS: in vivo
AUC(0-t) at 6 h strictly less than 500 ng·h/mL = Fulfilled. Otherwise Not fulfilled.

Solved entries (count: 6):
In: Does Cc1cn2nc(-c3cc(=O)n4cc(N5CCN(C)CC5)ccc4n3)cc2c(C)n1 have AUC(0-t) at 6 h strictly under 500 ng·h/mL?
Out: Not fulfilled

In: AUC(0-t) at 6 h under 500 ng·h/mL? Item: Cc1cn2nc(-c3cc(=O)n4cc(N5CCN(C)CC5)ccc4n3)cc2cn1
Out: Fulfilled

In: Please determine if Cc1cn2cc(-c3cc4ccc(N5CCN(C)CC5)cc4oc3=O)nc2cn1 is below 500 ng·h/mL in terms of AUC(0-t) at 6 h.
Out: Fulfilled

In: Does the reported AUC(0-t) at 6 h of the following compound sit strictly below 500 ng·h/mL? Cc1cn2cc(-c3cc4ccc(N5CCN(C)[C@@H](C)C5)cc4oc3=O)nc2c(C)n1
Out: Fulfilled

In: In the record for Cc1cn2nc(-c3cc(=O)n4cc(N5CCNCC5)ccc4n3)cc2c(C)n1 , is AUC(0-t) at 6 h less than 500 ng·h/mL?
Out: Fulfilled

In: Just wondering, is AUC(0-t) at 6 h of Cc1cn2cc(-c3cc4ccc(N5CCNCC5)cc4oc3=O)nc2c(C)n1 below 500 ng·h/mL?
Out: Fulfilled

Continuing:
In: Dear colleague, could you confirm whether AUC(0-t) at 6 h of Cc1cn2cc(-c3cc4ccc(N5CCN(C)CC5)cc4c(=O)o3)nc2cn1 falls below 500 ng·h/mL? Thanks.
Out: Fulfilled

In: # strict comparison: is reported AUC(0-t) at 6 h < 500 ng·h/mL? input = Cc1cn2cc(-c3cc4ccc(N5CCN(C)CC5)cc4c(=O)o3)nc2c(C)n1
Out: Not fulfilled

In: # strict comparison: is reported AUC(0-t) at 6 h < 500 ng·h/mL? input = Cc1cn2cc(-c3cc4ccc(N5CCN(C)CC5)cc4oc3=O)nc2c(C)n1
Out: Not fulfilled

In: Answer whether the compound Cc1cn2cc(-c3cc4ccc(N5CCNCC5)cc4c(=O)o3)nc2c(C)n1 has AUC(0-t) at 6 h strictly less than 500 ng·h/mL
Out: Fulfilled

In: Find out if reported AUC(0-t) at 6 h for CCN1CCN(c2ccc3cc(-c4cn5cc(C)nc(C)c5n4)c(=O)oc3c2)C[C@@H]1C is less than 500 ng·h/mL
Out: Not fulfilled
